- TESTED SYSTEM: APOL1
- COND: ASO, A431, 2 µM
After the bases stand the sugars from the 5' end (letter, count) and the backbone: PS all phosphorothioate, else s phosphorothioate and o phosphodiester by linkage. Methylation of C is not given here. e = 2'-O-(2-methoxyethyl) (MOE); k = constrained ethyl (cEt); d = 2'-deoxy (DNA)
READOUT KIND: target mRNA inhibition (%)
Write the number in % without appending the unit.

1) GGAATTATGGAATTGC (sugars kkkddddkekeddddd, PS) : 55
2) GGGTTATGAAATTATT (sugars kkkddddkekekdddd, PS) : 73
3) GCTAATTTTCTGACTG (sugars kkddddkekekkdddd, PS) : 71
4) TTCTATTAGAGGGCTA (sugars k2 d4 e4 k2 d4, PS) : 76

Please look at the following sequence next.
Exam item: Query (sequence): CGCAATGCTGACTTGG (sugars kkddddkdkdkddddd, PS) ; field requested: target mRNA inhibition
Marked response: 94

---

- TESTED SYSTEM: IRF5
- COND: ASO, KARPAS-229, 1.33333 µM
After the bases stand the sugars from the 5' end (letter, count) and the backbone: PS all phosphorothioate, else s phosphorothioate and o phosphodiester by linkage. Methylation of C is not given here. e = 2'-O-(2-methoxyethyl) (MOE); k = constrained ethyl (cEt); d = 2'-deoxy (DNA)
READOUT KIND: target mRNA inhibition (%)
Write the number in % without appending the unit.

# count of solved cases: 4
1. CCATTCTATGCCTTTT (sugars k3 d9 k3 e1, PS) : 44
2. GAATTTTGTGACTGTA (sugars k3 d10 k3, PS) : 66
3. TATTTCTGCTCCAGGT (sugars k2 d9 e3 k2, PS) : 71
4. CGGTCTTTGAGGTCTG (sugars kkddddddddddkeke, PS) : 29

Please look at the following sequence next.
Exam item: Query (sequence): GGTTCTTGGACTCTCA (sugars kkddddddddddkeke, PS) ; field requested: target mRNA inhibition
Marked response: 59

---

# maps each entry to its target mRNA inhibition
- TESTED SYSTEM: ANGPTL2
- COND: ASO, 5 µM
After the bases stand the sugars from the 5' end (letter, count) and the backbone: PS all phosphorothioate, else s phosphorothioate and o phosphodiester by linkage. Methylation of C is not given here. l = locked nucleic acid (LNA); d = 2'-deoxy (DNA)
Write the number in % without appending the unit.

# count of solved cases: 4
1) ATGATGCGGTTGTAGG (sugars l2 d11 l3, PS) : 69.8
2) TCTCCTAAGAGCAAAGCT (sugars l2 d14 l2, PS) : 37.2
3) TCAGTGGTGAGATGGGTCAC (sugars l1 d17 l2, PS) : 29.1
4) CAGGCCAACACTAACTCGG (sugars l1 d16 l2, PS) : 49

Exam item: Query (sequence): TAGCAGATGGGGCACAA (sugars l1 d12 l4, PS) ; field requested: target mRNA inhibition
Marked response: 22.9

Exam item: Query (sequence): AATTTACAGTTCTTTGTC (sugars l4 d10 l4, PS) ; field requested: target mRNA inhibition
Marked response: 78.2

Exam item: Query (sequence): CAAGAGGGAGGGGAGGACA (sugars l1 d16 l2, PS) ; field requested: target mRNA inhibition
Marked response: 36.8

Exam item: Query (sequence): GAACTCAGCCCAGTAGAC (sugars l1 d15 l2, PS) ; field requested: target mRNA inhibition
Marked response: -4.7

Exam item: Query (sequence): GAAATGTTATCTAATACT (sugars l4 d10 l4, PS) ; field requested: target mRNA inhibition
Marked response: 34.5

Exam item: Query (sequence): CATCTAAGGAATGTGGT (sugars l4 d11 l2, PS) ; field requested: target mRNA inhibition
Marked response: 63.7

Exam item: Query (sequence): ACCATTTTGAGATTCCCC (sugars l1 d15 l2, PS) ; field requested: target mRNA inhibition
Marked response: -8.3

Exam item: Query (sequence): GTGCTCTGTGAAGATTA (sugars l2 d11 l4, PS) ; field requested: target mRNA inhibition
Marked response: 66.6

---

# maps each entry to its target mRNA inhibition
- TESTED SYSTEM: DGAT2
- COND: ASO, HepG2, 2.5 µM
After the bases stand the sugars from the 5' end (letter, count) and the backbone: PS all phosphorothioate, else s phosphorothioate and o phosphodiester by linkage. Methylation of C is not given here. e = 2'-O-(2-methoxyethyl) (MOE); d = 2'-deoxy (DNA)
Write the number in % without appending the unit.

Exam item: Query (sequence): ATTCATCTTTCCAGATCCGG (sugars e5 d10 e5, PS) ; field requested: target mRNA inhibition
Marked response: 92

Exam item: Query (sequence): CGTTGGTCTTTTTGGCTGCC (sugars e5 d10 e5, PS) ; field requested: target mRNA inhibition
Marked response: 88

Exam item: Query (sequence): ATCCAGAGACTGAATTCTAG (sugars e5 d10 e5, PS) ; field requested: target mRNA inhibition
Marked response: 61

Exam item: Query (sequence): CTGTGGCACTAAGCTAGGCA (sugars e5 d10 e5, PS) ; field requested: target mRNA inhibition
Marked response: 64

Exam item: Query (sequence): GCTGTGATGACTTCCCAGGG (sugars e5 d10 e5, PS) ; field requested: target mRNA inhibition
Marked response: 75

---

- TESTED SYSTEM: IRF5
- COND: ASO, KARPAS-229, 4 µM
After the bases stand the sugars from the 5' end (letter, count) and the backbone: PS all phosphorothioate, else s phosphorothioate and o phosphodiester by linkage. Methylation of C is not given here. e = 2'-O-(2-methoxyethyl) (MOE); k = constrained ethyl (cEt); d = 2'-deoxy (DNA)
READOUT KIND: target mRNA inhibition (%)
Write the number in % without appending the unit.

# count of solved cases: 10
1) CCAATTTTGCATTCCA (sugars kkddddddddkekekk, PS) : 39
2) GCAAAGGGTGAGTAGG (sugars k3 d10 k3, PS) : 24
3) CGGTGTATTTCCCTGT (sugars k3 d10 k3, PS) : 0
4) CCCAATGCAACATCCA (sugars kddddddddddkekek, PS) : 0
5) CCATTCTATGCCTTTT (sugars k2 d9 e3 k2, PS) : 50
6) GTTATCTCCGTTCCTGG (sugars kkkddddddddkdkdkd, PS) : 27
7) ACTGACACAGGCGGAT (sugars kkkddddddddkekek, PS) : 0
8) AGATGGTGTTATCTCC (sugars k3 d10 k3, PS) : 0
9) AGGTTCTTGGACTCTC (sugars kkdddddddddkdkdk, PS) : 36
10) CCCAATGCAACATCCA (sugars kekdddddddddeekk, PS) : 0

Exam item: Which measured target mRNA inhibition belongs to AGGTTCTTGGACTCTC (sugars k3 d10 k3, PS) , tested on IRF5?
Marked response: 0

Exam item: Which measured target mRNA inhibition belongs to AGTAGGACGAGTTATG (sugars k3 d10 k3, PS) , tested on IRF5?
Marked response: 0

Exam item: Which measured target mRNA inhibition belongs to ACCACTGTGTACCCCA (sugars k3 d9 k3 e1, PS) , tested on IRF5?
Marked response: 47

Exam item: Which measured target mRNA inhibition belongs to GGTCTTTGAGGTCTGG (sugars kkkddddddddkekek, PS) , tested on IRF5?
Marked response: 46

Exam item: Which measured target mRNA inhibition belongs to CATTCTATGCCTTTTA (sugars kddddddddddkekek, PS) , tested on IRF5?
Marked response: 37

Exam item: Which measured target mRNA inhibition belongs to ACTGACACAGGCGGAT (sugars k3 d9 k3 e1, PS) , tested on IRF5?
Marked response: 0

Exam item: Which measured target mRNA inhibition belongs to AAGATGGTGTTATCTC (sugars k3 d10 k3, PS) , tested on IRF5?
Marked response: 0

Exam item: Which measured target mRNA inhibition belongs to AGGTTCTTGGACTCTC (sugars kdddddddddkekeke, PS) , tested on IRF5?
Marked response: 0

Exam item: Which measured target mRNA inhibition belongs to AGCTTGGTCTTGACCT (sugars k3 d9 k3 e1, PS) , tested on IRF5?
Marked response: 10

---

- TESTED SYSTEM: ANGPTL2
- COND: ASO, 5 µM
After the bases stand the sugars from the 5' end (letter, count) and the backbone: PS all phosphorothioate, else s phosphorothioate and o phosphodiester by linkage. Methylation of C is not given here. l = locked nucleic acid (LNA); d = 2'-deoxy (DNA)
READOUT KIND: target mRNA inhibition (%)
Write the number in % without appending the unit.

# count of solved cases: 5
1) TGATGATGCGGTTGTAGGT (sugars l1 d16 l2, PS) : 45.5
2) TTACATGCCGCCAGAGGAA (sugars l1 d16 l2, PS) : 45.6
3) CCACACCCAACATTTTA (sugars l2 d13 l2, PS) : 56.8
4) GTTTCTGACAAAGCCCG (sugars l1 d13 l3, PS) : 79.6
5) GATGATGCGGTTGTAGGT (sugars l1 d15 l2, PS) : 62.4

Exam item: Query (sequence): TGAATGGAAGATACAAAACT (sugars l4 d12 l4, PS) ; field requested: target mRNA inhibition
Marked response: 11.6

Exam item: Query (sequence): GATGATGCGGTTGTAGG (sugars l2 d13 l2, PS) ; field requested: target mRNA inhibition
Marked response: 67

Exam item: Query (sequence): CCATTTTGAGATTCCCC (sugars l1 d14 l2, PS) ; field requested: target mRNA inhibition
Marked response: 26.4

Exam item: Query (sequence): TTATAGGGTGGAATAAA (sugars l4 d9 l4, PS) ; field requested: target mRNA inhibition
Marked response: 18.2

Exam item: Query (sequence): GTTCTCCAGGGAAGTGTA (sugars l1 d15 l2, PS) ; field requested: target mRNA inhibition
Marked response: 47.4

Exam item: Query (sequence): TTATAAAGACAAGAGCCT (sugars l3 d12 l3, PS) ; field requested: target mRNA inhibition
Marked response: 34.5
